Reported protein stability index values for a set of sequences
PROCEDURE TEXT: protein stability index of a GFP-peptide fusion (yeast GPS) (PSI 1-4); higher = more stable; sorted into four equal gates, so the index is relative within each strain
MEASUREMENT SETUP: san1∆
Please reply with the number alone, leaving off any unit.

Measured protein stability index of MVKGLLKSFTESTAGSA [ECM29] : 2.81

Measured protein stability index of TGMEPGKTSFFQALGVP [RPP0] : 3.23

Measured protein stability index of GSNVLKSGKTIVITSIT [RRP43] : 2.41

Measured protein stability index of STAAAPIAAPKKPRKPR [PGD1] : 2.75

Measured protein stability index of KMYSDDTLKDISTSFCF [BRN1] : 3.42

Continuing:
Measured protein stability index of DSYLILDTLPSEFDSRV [RPT5] : 3.23

Measured protein stability index of VLTQLTALALKYLIKYN [CSI1] : 2.55

Measured protein stability index of LSATGTRSAKKMVIAEL [YJR042W/NUP85] : 2.97

Measured protein stability index of SLNSMTNAKLPNVDLVT [RGR1] : 2.52

Measured protein stability index of RLKQVFNRALDQSISKL [NNF1] : 1.93

Measured protein stability index of QQQRRQLTPQQQQLVNQ [GAL11] : 2.8

Measured protein stability index of LSNEFTATNSKGEQIAI [ECM29] : 2.91

Measured protein stability index of EDYPMSSEIKIYYNELQ [SIR4] : 2.53

Measured protein stability index of VSNNEANTPSIPTNPVD [SWI3] : 2.97
